- Test system: BDF1 mice, P388 leukemia ip, median survival T/C
- Assay Procedure: NCI In Vivo Anticancer Drug Screen. Data for tumor model P388 Leukemia (intraperitoneal) in B6D2F1 (BDF1) mice
- Assay Context: endpoint: median survival time; dose: 12.5 mg/kg/injection; schedule: Q01DX009 (ip); vehicle: other; higher = longer survival
Inconclusive results and toxic doses are left out.
Exercise: state measured T/C for each of the molecules provided.

INPUT: What value of T/C has been recorded for this entry: `c1ccc(CN2CCn3nccc32)cc1`
OUTPUT: 90 % of control

INPUT: What value of T/C has been recorded for this entry: `Clc1ccc2nc(CBr)cnc2c1`
OUTPUT: 104 % of control

INPUT: What value of T/C has been recorded for this entry: COc1cccc2c1C(=O)c1c(O)c3c(c(O)c1C2=O)CC(O)(C(=O)CO)CC3OC1CC(N)C(O)C(C)O1 (centres undefined) (tested in a mixture with another compound)
OUTPUT: 108 % of control

INPUT: What value of T/C has been recorded for this entry: `CC(=O)c1ccc2ccccc2c1OC(=O)c1ccncc1`
OUTPUT: 99 % of control
